tested on: MDA-MB-231 breast; assay: NCI-60 one-dose screen, 48 h (100 = growth as untreated, 0 = no growth, -100 = all killed); conditions: 10 µM unless noted
About 83,000 compounds went through this panel and 20% of them were active in at least one assay; those are over-represented in the sample as a whole.
t if growth is below 80%. f if not; exact matches included in f.

Req: Is growth strictly under 80% for the entry COc1ccc(N(C)c2nc(Cl)nc3ccn(C)c23)cc1 ?
Resp: t

Req: Is growth strictly under 80% for the entry CSc1cccc(NC(=O)Nc2nc3c(C)cccc3s2)c1 ?
Resp: f

Req: Is growth strictly under 80% for the entry Nc1c(C(=O)Nc2ccccn2)sc2nc3c(cc12)CCCCC3 ?
Resp: t

Req: Is growth strictly under 80% for the entry [2H]c1nc(Nc2ncc3cc(C(=O)N(C)C)n(C4CCCC4)c3n2)c([2H])c([2H])c1N1C([2H])([2H])C([2H])([2H])NC([2H])([2H])C1([2H])[2H] ?
Resp: t

Req: Is growth strictly under 80% for the entry COc1ccc2[nH]c(-c3ccccc3)c(C=C(C#N)C#N)c2c1 ?
Resp: t

Req: Is growth strictly under 80% for the entry FC(F)(F)c1ccc2c(Nc3cccc(C4CC(c5ccccc5)=NN4c4ccc(Cl)cc4)c3)ccnc2c1 (configuration not stated) ?
Resp: t

Req: Is growth strictly under 80% for the entry Cc1c(Cl)cccc1NC(=O)c1sc2nc3c(cc2c1N)COCC3 ?
Resp: t

Req: Is growth strictly under 80% for the entry COc1ccccc1-c1ccc2nc(NC(=O)Nc3cc(C(F)(F)F)cc(C(F)(F)F)c3)sc2c1 ?
Resp: t

Req: Is growth strictly under 80% for the entry O=c1c2ccccc2oc2ccc(OCCCCCN3CCCCCC3)cc12 ?
Resp: t

Req: Is growth strictly under 80% for the entry O=C(CN1N=C(c2ccc(F)cc2)CCC1=O)Nc1nc2ccccc2s1 ?
Resp: t

Req: Is growth strictly under 80% for the entry O=C(CN1N=C(c2ccc(F)cc2)CCC1=O)Nc1nccs1 ?
Resp: f

Req: Is growth strictly under 80% for the entry O=C(Nc1cccc(-c2cccc(F)c2)c1)C1CCN(Cc2cccc3cccnc23)CC1 ?
Resp: t

Req: Is growth strictly under 80% for the entry CCCCN(CCCC)CC(CN(CC)CC)OC(=O)Nc1ccccc1 (configuration not stated) ?
Resp: t

Req: Is growth strictly under 80% for the entry CC[C@H](Nc1ncnc2nc[nH]c12)c1nc2cccc(CC(=O)c3ccc(C(=O)NO)cc3)c2c(=O)n1-c1ccccc1 ?
Resp: f

Req: Is growth strictly under 80% for the entry CC(=O)ON1CCCC(P(=O)(OCOC(=O)C(C)(C)C)OCOC(=O)C(C)(C)C)C1=O (configuration not stated) ?
Resp: t

----------
Hi there, I'd appreciate the recorded growth for every entry that follows.
test system: SR leukemia; assay: NCI-60 one-dose screen, 48 h (100 = growth as untreated, 0 = no growth, -100 = all killed); settings: 10 µM unless noted
This is part of a sample that, as a whole, favours compounds with a hit. Of some 83,000 tested, about 20% had one in any assay. Active and inactive are the calls of the source. The calls were made as follows: active = growth percent below 10; inactive = the rest.

GET /value?item= COc1ccc2c(c1)Oc1nc(N)c(C#N)c(N)c1C2Sc1ccc(O)cc1 (centres undefined) &field=growth returns 13.7% (inactive)

GET /value?item= CCOC(=O)C1CCN(S(=O)(=O)/N=C2/NC(=O)NC2=C(Cl)Cl)CC1 &field=growth returns -11.4% (active)

GET /value?item= CN1CCN(S(=O)(=O)O[C@@H]2C(=O)N(c3cc4c5ccccc5ccc4c4ccccc34)[C@H]2c2ccc(F)cn2)CC1 &field=growth returns 52.5% (inactive)

GET /value?item= CC(=O)ON1CCCC(P(=O)(OCOC(=O)C(C)(C)C)OCOC(=O)C(C)(C)C)C1=O (centres undefined) &field=growth returns -22.3% (active)

GET /value?item= CCSc1ccc(C2C(Br)C(=O)N2c2cc(OC)c(OC)c(OC)c2)cc1 (centres undefined) &field=growth returns 16.3% (inactive)

GET /value?item= NS(=O)(=O)c1ccc(-n2nc(-c3ccccc3)ccc2=O)cc1 &field=growth returns 83.9% (inactive)

GET /value?item= COc1cc(C2=NN(c3ccccc3)C(c3cccc(Nc4ccnc5cc(C(F)(F)F)ccc45)c3)C2)cc(OC)c1OC (centres undefined) &field=growth returns 56.9% (inactive)

GET /value?item= C=C(C)[C@@H]1CC[C@]2(C(=O)N3CCN(C)CC3)CC[C@]3(C)[C@H](CC[C@@H]4[C@@]5(C)C/C(=C/c6ccco6)C(=O)C(C)(C)[C@@H]5CC[C@]43C)[C@@H]12 &field=growth returns -21.9% (active)

GET /value?item= COc1ccc(-c2nc(C#N)c(NCC(c3ccc(Cl)cc3)N3CCCCC3)o2)cc1 (centres undefined) &field=growth returns 74.5% (inactive)
